target: E. coli GroEL/ES (Escherichia coli, UniProt P0A6F5);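 note: inhibition of E. coli GroEL/GroES-assisted refolding of denatured pig heart MDH, read out as recovered MDH activity on mesoxalate by malachite green absorbance after 20–40 min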
Sequence (P0A6F5 whole entry, looked up): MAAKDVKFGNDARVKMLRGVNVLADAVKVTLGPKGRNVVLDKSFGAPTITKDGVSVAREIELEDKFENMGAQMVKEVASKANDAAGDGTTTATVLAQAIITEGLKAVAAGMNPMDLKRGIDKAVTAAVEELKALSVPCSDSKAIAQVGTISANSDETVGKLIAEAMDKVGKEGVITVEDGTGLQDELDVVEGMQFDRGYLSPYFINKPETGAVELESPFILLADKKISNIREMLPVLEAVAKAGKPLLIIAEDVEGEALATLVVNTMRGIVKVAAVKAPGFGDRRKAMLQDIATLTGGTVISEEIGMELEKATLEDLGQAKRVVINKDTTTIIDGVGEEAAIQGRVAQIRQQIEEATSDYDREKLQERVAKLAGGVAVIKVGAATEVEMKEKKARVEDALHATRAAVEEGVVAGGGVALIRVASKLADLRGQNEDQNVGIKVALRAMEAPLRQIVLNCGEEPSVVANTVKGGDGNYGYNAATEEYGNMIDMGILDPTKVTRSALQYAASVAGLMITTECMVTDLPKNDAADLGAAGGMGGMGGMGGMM
For each record, write down the corresponding log10(IC50).
Scale: log10; quantity: IC50; unit before log: µM

Entry Cc1cc2c(C(C)C)c(O)c(O)c(C=O)c2c(O)c1-c1c(C)cc2c(C(C)C)c(O)c(O)c(C=O)c2c1O , log10(IC50) reported as -0.18

compound Oc1c(Cl)cc(Cl)c(Cl)c1Cc1c(O)c(Cl)cc(Cl)c1Cl , log10(IC50) observed: 0.15

Sure, the documented log10(IC50) for COc1cc(-c2ccc(/N=N/c3ccc4c(S(=O)(=O)O)cc(S(=O)(=O)O)c(N)c4c3O)c(OC)c2)ccc1/N=N/c1ccc2c(S(=O)(=O)O)cc(S(=O)(=O)O)c(N)c2c1O is 0.59

// C=C1CC[C@H](O)C/C1=C/C=C1\CCC[C@]2(C)[C@@H]([C@H](C)CCCC(C)C)CC[C@@H]12 : log10(IC50) value = 1.34

GET /value?item= C=C(CC)C(=O)c1ccc(OCC(=O)O)c(Cl)c1Cl &field=log10(IC50) returns 0.72

get_value(item= O=C(/C=C/c1ccccc1)c1ccc(O)cc1 [4'-HYDROXYCHALCONE] , readout=log10(IC50)) returns 1.32

According to the records, this compound C=C1CC[C@H](O)C/C1=C/C=C1\CCC[C@]2(C)[C@@H]([C@H](C)/C=C/[C@H](C)C(C)C)CC[C@@H]12 displays log10(IC50) of 1.45
